Values were extracted from the DeepSol protein solubility set.

- assay-summary: soluble on expression in E. coli; label from the status in PepcDB or PDB records
reported-endpoint: soluble on expression in E. coli

Consider the reported soluble on expression in E. coli for these sequences:
MGSDKIHHHHHHMVKVLILGQGYVASTFVAGLEKLRKGEIEPYGVPLARELPIGFEDIKIVGSYDVDRAKIGKKLSEVVKQYWNDVDSLTSDPEIRKGVHLGSVRNLPIEAEGLEDSMTLKEAVDTLVKEWTELDPDVIVNTCTTEAFVPFGNKEDLLKAIENNDKERLTATQVYAYAAALYANKRGGAAFVNVIPTFIANDPAFVELAKENNLVVFGDDGATGATPFTADVLSHLAQRNRYVKDVAQFNIGGNMDFLALTDDGKNKSKEFTKSSIVKDILGYDAPHYIKPTGYLEPLGDKKFIAIHIEYVSFNGATDELMINGRINDSPALGGLLVDLVRLGKIALDRKEFGTVYPVNAFYMKNPGPAEEKNIPRIIAYEKMRIWAGLKPKWL
soluble
MGSDKIHHHHHHMSIFANLFKKQADADAKVVGNVEDFVSLTRVYFQSVIAVNLGITNIRFLPDVANFKRLFKVATQGGKLGLAEKSASRKMLMQDYGISESFFKEIDTSIKKNCRTQNDVQAYLFMYQGFSSDLMMLMGNLMQWKFRMPAIFKKALRSMTEKTVHDVCTKTVWKADDVHKTAAAVRQYKERLGFSEQWMSEYVYNIVLLAKKEPKHKDEEAKAK
not soluble
MGSDKIHHHHHHMQQNTNVDPQEIAKFERMAETWWDLNGEFKPLHLLNPLRLNYIDQTAGGIFGKKVLDVGCGGGILSESMARIGAIVDGLDMGEEPLEVARLHALETGVSINYVKNTAEAHREDHREYYDVVTCMEMLEHVPDPQSVIQACCDMVKPGGFVFFSTINRNVRSFVETIIGAEYLLKMLPIGTHDHNKFIKPSELIDLVDNTELICKDALGITYNPLTGIFKYTSKVDVNYMIATQKVD
not soluble
MSLGTSYSEGVSSIHMVKGERGSNNLELTSESLSSTNDTIRRLQRDLLFLQNELRFEKFVRQQHLQNIGKLHREHILDMAVESERQKLLLTNKRYKAQIELLNSEIDKHRSESQAALNRRVKWENDFNNKIKALREEKKAWKSEESELKSSIESLISQLESIRNSQIDIAFSKNQLELKLQLYETKLKEYEQHLSCVNISKKQVSSSSDTSFGNTKMDSSMILSNSEAVSDEQERELIESEKHRMKLESENLHLQANIELLKKDLEAINVVYEAKIFDLEKRLSSEANAPELHNPVNLNYDAQLSKISEIKENYDELLTRYRELEGKFLESQAEVEELKNFQKPLVDTGSSIHSSPGLQEGHHHHHH
soluble
LARMSEREIDISLGTTVGRSLWRLAQGHDDREVAPRAIAKQISVEHTYPKDLVTSRAVDTAIIRASRESHRRLLDDGRGARTVSVKLRMADFRIESRSATLPYATDNLDTVTATALKLARYPDEVGPIRLVGVGLSGLEDARQDILFPELDRVVPVKDTDFEVGVSDPHDSDLEISTTDESPTAIGWRATQDIWHPDYGHGWVQGLGHGKITVRFETRTTGPGKVRTFDTNDALLSSADPINSLDWS
not soluble

Recorded soluble on expression in E. coli for MGHHHHHHSHMSVMFDPDTAIYPFPPKPTPLSIDEKAYYREKIKRLLKERNAVMVAHYYTDPEIQQLAEETGGCISDSLEMARFGAKHPASTLLVAGVRFMGETAKILSPEKTILMPTLQAECSLDLGCPVEEFNAFCDAHPDRTVVVYANTSAAVKARADWVVTSSIAVELIDHLDSLGEKIIWAPDKHLGRYVQKQTGGDILCWQGACIVHDEFKTQALTRLQEEYPDAAILVHPESPQAIVDMADAVGSTSQLIAAAKTLPHQRLIVATDRGIFYKMQQAVPDKELLEAPTAGEGATCRSCAHCPWMAMNGLQAIAEALEQEGSNHEVHVDERLRERALVPLNRMLDFAATLRG , please? soluble

Recorded soluble on expression in E. coli for MSRSEFPNSKCLICGSICTAKFHFGGLSCNACASFFRRTVSLNIRYLCKNSNNCITSPGQRTFCKACRYESCVDKAGMKRDFVQQRRSTNATPKYILNSTSGSSNREVVRGFITDSNSHLVTQTDHLRNIDNNEHCKDMKKYSDLLEISHMNLLRFYVKQVEPEKKELKNILQIKSINDLMITCAYDNGSAMESCVHCPGTGKLSQEDVRLLQKSFQFAHTWLDSTWQYSIATDIDESEVSGESENLSQFISHIKSTLGACLANLKLDVYEFAAFKSFCVWSIGAQGATESMKVVAQEHYEAVASALKMYYKTFTSMSDSEIATRIEEISFGRSSDVQMIYDETIKLYNKIGIPKSLFFEGN , please? not soluble

Recorded soluble on expression in E. coli for LAAGQLADLVVLSKDYFSVAEEEIKGIESVLTVVDGKVVYAAGHFSPLAPPPIPVLPEWSPVVKVPGHYRSAPPATAKIGAMVQMHQCCGSCGVHGHQHDIARKSSIPVSDEQAFWGVLGCSCFA , please? not soluble

Recorded soluble on expression in E. coli for MEKVMIELEEQVNQLINQILLKAENQYELLIGQCRSKVKLTNTQEHILMLLSEGQKTNSELAKALNVSQAAVTKAVKTLVKEGMLEGKKDKDDGRVTYFVLTQEAQPIAQEHKEHHQETLGVYRSVLDQFDHQERQVIGRFLIKLAEKIEE , please? not soluble

Recorded soluble on expression in E. coli for MAHHHHHHMRGKRRQHRELYQAVLREQAAKAQEDAAQRRARLSWKEKLQLSFQEARESVTQLTSAKAGVMALLQHCTASHTAEVALEQGIDVKNVQMVFEKAAASNSVGVEEIVVGYIDAPGASHEEVMAFAEKLHKVCPVAKSMHIEWRQGSADSRRHEDGAVRRADGLHREMEQAASGVEWAESRTGSNLGGRSSAADAASTTSVESMPAGMPGSRRVQSSMSSRATRGGSLRDDEDKLHFPGVEKRDTAWDSTRHGSSRAKEPSTETSTASHRPPPPESASAATTQPGACSSDPASASPFPKP , please? soluble

====

- assay-summary: soluble on expression in E. coli; label from the status in PepcDB or PDB records
reported-endpoint: soluble on expression in E. coli

MPMISCDMAYGRTDEQKRALSAGLLRVISEATGEPRENIFFVIREGSGINFVEHGEHLPDYVPGNANDKALIAKLK
soluble
MANLGETLKQLRKQRRWTQEQLAEQLNVSRSQISKWENGSLLPDVQSLEKLCQLFNISADFLLGGETRQRELLREVTDMYGTADVHETVLAALDYLLHNQEMSEAMYALAKLPDKKRKHVETMIMTIVKECSELI
not soluble
MTKLTIFYDGTCPLCAKEMKALRQHDHKQEINTVDIYSDAFSAYPQINPDRANTILHALDNQGNLLLGLDVTYRAWQLVGRGWLYAPLRWPLIRPVADWLYLRFAQNRYRISYWLTGTSRCNSGRCSRLEHHHHHH
soluble
MSKEQAHAELKKDYLIHDEKIMLMQEIVDRQLAAVPDLYRVKDEVSIYIGIPFCPTKCAYCTFPAYAIQGQAGRVGSFLWGLHYEMQKIGEWLKEHDVKVTTIYFGGGTPTSITAEEMDLLYEEMVRSFPDVKNIREITVEAGRPDTITEEKLAVLNKYDIDRISINPQSYENETLKAIGRHHTVEETIEKYHLSRQHGMNNINMDLIIGLPGEGVKEFRHSLSETEKLMPESLTVHTLSFKR
not soluble
RMALSVLASSKEELFMPLLSQEAAHPDEWAGRLKNLSVNAEHAVTASLKNAEKAAVILGAEVQNHPDYAAVYAAAQELADATGAVLGILPQAANSVGADVLNVNSGKSVVEMVNAPKQAVLLLNVEPEIDTADGAKAVAALKQAKSVMAFTPFVSETLLDVCDVLLPIAPFTETSGSFINMEGRLQSFHGVVQGFGDSRPLWKVLRVLGNLFDLKGFEYHDTAAILKDALDVESLPSKLDNRNAWTGEGVQTTSDRLVRVGGVGIYHTDSIVRRSAPLQETSHAAVPAARVNPNTLARLGLQDGQTAVAKQNGASVSVAVKADAGLPENVVHLPLHTENAALGALMDTIELAGA
not soluble
MGSDKIHHHHHHADWKVGIQTWTFHNLTLMETLDKTQQLGMGYAEAFFFQELGAPFPKETYLNYDLSDDNCALLRHEFKIRGIKPIAFGVASYGTNEEWDKFFAFAHKIGAHIVTVEPELNQLDYIESLAKKYDMEVAIHNHPSPCIYASAEVVEKALKGRSPLMGVCADIGHWKRVGEDPLKNLQKLSGRIKVAHLKDLTDKMEDATWGTGILPVKAFVNELKRQHFNGLISIEYDDFKSDIQEIRNSLEFLQKCSK
not soluble
MSHVELQPGFDFQQAGKEVLAIERECLAELDQYINQNFTLACEKMFWCKGKVVVMGMGKSGHIGRKMAATFASTGTPSFFVHPGEAAHGDLGMVTPQDVVIAISNSGESSEITALIPVLKRLHIPLICITGRPESSMARAADVHLCVKVAKEACPLGLAPTSSTTATLVMGDALAVALLKARGFTAEDFALSHPGGALGRKLLLRVNDIMHTGDEIPHVKKTASLRDALLEVTRKNLGMTVICDDNMMIEGIFTDGDLRRVFDMGVDVRQLSIADVMTPGGIRVRPGILAVEALNLMQSRHITSVMVADGDHLLGVLHMHDLLRAGVV
soluble
MANVYDLANELERAVRALPEYQAVLTAKSAIESDADAQVLWQDFLATQSKVQEMMQSGQMPSQEEQDEMSKLGEKIESNDLLKVYFDQQQRLSVYMSDIEKIVFAPMQDLM
not soluble

Recorded soluble on expression in E. coli for MGHHHHHHSHAESHLQSSLITASQFFEIWLHFDADGSGYLEGKELQNLIQELQQARKKAGLELSPEMKTFVDQYGQRDDGKIGIVELAHVLPTEENFLLLFRCQQLKSCEEFMKTWRKYDTDHSGFIETEELKNFLKDLLEKANKTVDDTKLAEYTDLMLKLFDSNNDGKLELTEMARLLPVQENFLLKFQGIKMCGKEFNKAFELYDQDGNGYIDENELDALLKDLCEKNKQDLDINNITTYKKNIMALSDGGKLYRTDLALILCAGDN , please? soluble

Recorded soluble on expression in E. coli for MSIYYDLYENPKQEDAEEQKLLHARVVPSGTYTTKEFVERVSMMHHIPHAQLVGAVEAITDELQTLLSRGYIVEFGDLGHFSLTLSLEKEIIDRKEVRSPSIRLKNIKLKVKQTYKRELNSKMDLERISSPTRSNAKISEDECLKKLQDFLEKHPCINRADYCAITGMSRLQALHQLNLFIEKGIIQKYGNGKTVVYIRVV , please? not soluble

Recorded soluble on expression in E. coli for MAHHHHHHMSCLNVQPVQLPITNKFRNLPAGKPSHRHESTFCRFFSDTTEKECKGSRRNINHRNKSSIFDNVEENDIIDNTKINQYNNVKKRFVSNNSLEFKKTFQKNINYVPNEKYGKKNIPDVRNLYIFSRQELNSDTKERKSSKKISNYSLEKNPNKWGVDVLKYNLPSPKKIYRHVDNLTTCLVPKISEDSFIPKKNKKYYVTHLEKSLCPKENILLLNSKKKLIHLHQSKLEMNCVPKDYEQEINKNKPVFLERNLNNNLIPIVECKRRTFHVNDTCKNKQCSINFSCERKPSPFRSGKRIGYIFTRNDNPTFFF , please? not soluble

Recorded soluble on expression in E. coli for MSLRIVKVRTFHVRPRWLFVAVETDKGVIGWGEAVVEGQARVVERMIGDLAEYLAGRDPRRIEHHWQGMYRGAFYRGGAVLCSAISGIDQALWDITARDLGVPVHALLGGAVRDSVRMYGHARGVTDAEFAHAARRSRSAGMTAIKFGLDGPVRALDTVEYVDRQVARVAAVREAVGPAFDIALDFHGRTSPAMARRLAERLSPMGPLFIEEPCLPENVDALAEIARATNVPIAAGERIFTKWGFRELLERRAVSVVQPDLCHAGGISEVRRIAAMAEAHYVALAPHNPLGPVSLAACLQVAASTPNFLIQEYLALDDGADLGAGILAVPFSVENGHIAVPTGPGLGIEVDEAQLMDRVYAGDWTTPRFTHQDGSHGDWEGHHHHHH , please? not soluble
